Hi there, I'd appreciate the recorded Potency ratio (PR), positive chronotropic for every entry that follows.
- systemTested: Isolated Guinea Pig Atria (Cavia porcellus)
- Construct: Isolated Guinea Pig Atria; from tissue; host or cells: guinea pig atria (isolated organ)
- Sequence (H0W3H1 1-470): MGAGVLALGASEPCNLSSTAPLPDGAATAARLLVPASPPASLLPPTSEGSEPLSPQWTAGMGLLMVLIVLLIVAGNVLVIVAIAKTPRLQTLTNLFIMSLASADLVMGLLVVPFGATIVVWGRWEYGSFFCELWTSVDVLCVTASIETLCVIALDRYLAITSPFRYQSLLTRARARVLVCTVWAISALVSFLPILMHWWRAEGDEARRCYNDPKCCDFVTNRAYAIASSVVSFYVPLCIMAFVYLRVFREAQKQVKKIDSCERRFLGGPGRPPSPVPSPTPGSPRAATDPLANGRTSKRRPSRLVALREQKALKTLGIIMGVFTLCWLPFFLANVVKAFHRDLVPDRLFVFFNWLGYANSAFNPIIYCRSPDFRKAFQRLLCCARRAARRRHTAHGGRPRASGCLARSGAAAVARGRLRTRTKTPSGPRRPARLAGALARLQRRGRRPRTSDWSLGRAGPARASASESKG
- experimentDescription: pA2 on isolated guinea pig atria
- Assay type: cell-based
- runParameters: with respect to propranolol
# output: bare number, no unit

I have this molecule here, CCCCCCCCC(=O)NCc1ccc(OCC(O)CNCCCCC)c(OC)c1 (centres unmarked) [NH-n-C5 H11] , and I need its recorded Potency ratio (PR), positive chronotropic. 0.12

Recorded Potency ratio (PR), positive chronotropic for CCCCCCCCC(=O)NCc1ccc(OCC(O)CNCC)c(OC)c1 (centres unmarked) [NHC2 H5] , please? 0.07

// query Potency ratio (PR), positive chronotropic value for entry CCCCCCCCC(=O)NCc1ccc(OCC(O)CNCC(C)C)c(OC)c1 (centres unmarked) [NH-i-C4 H9] 0.06

Potency ratio (PR), positive chronotropic for CCCCCCCCC(=O)NCc1ccc(OCC(O)CNC(C)(C)C)c(OC)c1 (centres unmarked) [NH-t-C4 H9] ? 0.19

Requested field: Potency ratio (PR), positive chronotropic. Item: CCCCCCCCC(=O)NCc1ccc(OCC(O)CNCCCCCC)c(OC)c1 (centres unmarked) [NH-n-C6 H13] 0.01

Please give the measured Potency ratio (PR), positive chronotropic for this molecule: CCCCCCCCC(=O)NCc1ccc(OCC(O)CNC)c(OC)c1 (centres unmarked) [NHCH3] 0.03

Can you share its Potency ratio (PR), positive chronotropic? I mean this molecule: CCCCCCCCC(=O)NCc1ccc(OCC(O)CNCCCC)c(OC)c1 (centres unmarked) [NH-n-C4 H9] 0.13

Entry CCCCCCCCC(=O)NCc1ccc(OCC(O)CNCCC)c(OC)c1 (centres unmarked) [NH-n-C3 H7] : reported Potency ratio (PR), positive chronotropic = ? 0.05

Give the measured Potency ratio (PR), positive chronotropic of CCCCCCCCC(=O)NCc1ccc(OCC(O)CNC(C)C)c(OC)c1 (centres unmarked) [NH-i-C3 H7] . 0.45

Can you look up the measured Potency ratio (PR), positive chronotropic of CCCCCCCCC(=O)NCc1ccc(OCC(O)CNC(C)CC)c(OC)c1 (centres unmarked) [NH-s-C4 H9] for me? 0.07

Name the reported Potency ratio (PR), positive chronotropic value associated with the molecule C=CCNCC(O)COc1ccc(CNC(=O)CCCCCCCC)cc1OC (centres unmarked) [NHC3 H5] 0.08

Hello, the source for this data is patent US5804603A, in case you need it.
